Values were extracted from ChEMBL document CHEMBL3272008.

System: Mus musculus
Assay Text: Depression of spontaneous motor activity in Swiss-Webster mouse at 12.5 mg/kg, ip by photocell cage test relative to control
Format: functional
Test Settings: route intraperitoneal
Result Type: Activity (%)
Report the figure in % without appending any unit label.

Field Activity (Mus musculus), entry O[C@]1(c2ccc(C(F)(F)F)cc2)CCN2CCCCC2C1 (single isomer, unassigned) : 90

###

Test system: Mus musculus
Assay Text: Depression of spontaneous motor activity in Swiss-Webster mouse at 25 mg/kg, ip by photocell cage test relative to control
Format: functional
Test Settings: route intraperitoneal
# note: exactly 20% is not below, so it is not satisfied; use satisfied for Activity strictly under it

Molecule | Assigned Category
O[C@@]1(c2cccc(C(F)(F)F)c2)CCN2CCCCC2C1 (single isomer, unassigned) | not satisfied
O[C@]1(c2ccc(Cl)cc2)CCN2CCCCC2C1 (stereo partly drawn) | satisfied
O[C@@]1(c2ccc(Cl)cc2)CCN2CCCCC2C1 (single isomer, unassigned) | not satisfied
O[C@]1(c2cccc(C(F)(F)F)c2)CCN2CCCCC2C1 (single isomer, unassigned) | not satisfied
O[C@@]1(c2ccc(C(F)(F)F)cc2)CCN2CCCCC2C1 (single isomer, unassigned) | not satisfied

Request: Dear colleague, could you confirm whether Activity of O[C@]1(c2ccc(C(F)(F)F)cc2)CCN2CCCCC2C1 (single isomer, unassigned) falls below 20%? Thanks.
Response: not satisfied

Request: Determine whether this molecule shows Activity lower than 20% (ties excluded): O[C@]1(c2cccc(Cl)c2)CCN2CCCCC2C1 (single isomer, unassigned)
Response: not satisfied

Request: Strictly below 20% in Activity? O=C(c1ccc(F)cc1)[C@H]1CCN2CCCC[C@@H]2C1 (single isomer, unassigned)
Response: satisfied
